Measured values drawn from patent US10047098B2 for this set.

# targetDesc: Recombinant human soluble BACE1 catalytic domain (Homo sapiens (Human))
# measurementNotes: BACE1 HTRF FRET Assay
# conditionLabel: Ki calculated from IC50 using the Cheng-Prusoff equation; QSY7-APPswe-Eu substrate, pH 5.0; read-out: BACE-1 Ki
pKi: −log10 of the molar value.
endpoint: pKi

{"columns": ["recordSmiles", "pKi"],
 "data": [
  ["C[C@H]1C[C@H]2C(=O)N(C)C(=N)N[C@@]2(c2cc(OCC3CC3)ncc2F)CO1", 7.96],
  ["CN1C(=N)N[C@@]2(c3cc(Oc4ncccc4F)ccc3F)COCC[C@H]2C1=O", 7.57],
  ["CN1C(=N)N[C@@]2(c3cc(OCC4CC4)ccc3F)CO[C@@H](c3ccc(F)cc3)C[C@H]2C1=O", 8.49],
  ["CN1C(=N)N[C@@]2(c3cc(Br)ccc3F)CO[C@@H](c3ccc(F)cc3)C[C@H]2C1=O", 7.22],
  ["COC[C@@H]1C[C@H]2C(=O)N(C)C(=N)N[C@@]2(c2ccc(F)cc2F)CO1", 5.24],
  ["CN1C(=N)N[C@@]2(c3cc(Oc4cc(C#N)ccn4)ccc3F)CO[C@@H](C3CC3)C[C@H]2C1=O", 8.70]
]}

I = CN1C(=N)N[C@@]2(c3cc(Oc4ccnc(C(F)F)c4)ccc3F)CO[C@@H](C3CC3)C[C@H]2C1=O
II = C[C@H]1C[C@H]2C(=O)N(C)C(=N)N[C@@]2(c2cc(Oc3cncc(F)c3)ccc2F)CO1
query: Please indicate which has the smaller reported pKi: I , or II . In your reply, give the label of the chosen option.
result: I
(I: 7.22, II: 7.70)

P = CN1C(=N)N[C@@]2(c3cc(Oc4cccc(-c5cocn5)c4)ccc3F)CO[C@@H](C3CC3)C[C@H]2C1=O
Q = CN1C(=N)N[C@@]2(c3cc(OC4CC(F)(F)C4)ccc3F)CO[C@@H](C3CC3)C[C@H]2C1=O
query: // which entry has the larger pKi value, P or Q ? State your choice using its label.
result: P

A = C[C@H]1C[C@H]2C(=O)N(C)C(=N)N[C@@]2(c2cc(Oc3ncccc3F)c(F)cc2F)CO1
B = Cc1nccnc1Oc1ccc(F)c([C@]23CO[C@@H](C)C[C@H]2C(=O)N(C)C(=N)N3)c1
C = C[C@H]1C[C@H]2C(=O)N(C)C(=N)N[C@@]2(c2cc(Oc3cnccn3)ccc2F)CO1
query: Order by pKi, ascending. Provide the labels, sequenced as the question asks.
result: B, C, A
(B: 6.40, C: 7.93, A: 8.40)

----------
# targetDesc: purified human autoBACE-2 (Homo sapiens (Human))
# Sequence (Q9Y5Z0 63-473 limits assumed): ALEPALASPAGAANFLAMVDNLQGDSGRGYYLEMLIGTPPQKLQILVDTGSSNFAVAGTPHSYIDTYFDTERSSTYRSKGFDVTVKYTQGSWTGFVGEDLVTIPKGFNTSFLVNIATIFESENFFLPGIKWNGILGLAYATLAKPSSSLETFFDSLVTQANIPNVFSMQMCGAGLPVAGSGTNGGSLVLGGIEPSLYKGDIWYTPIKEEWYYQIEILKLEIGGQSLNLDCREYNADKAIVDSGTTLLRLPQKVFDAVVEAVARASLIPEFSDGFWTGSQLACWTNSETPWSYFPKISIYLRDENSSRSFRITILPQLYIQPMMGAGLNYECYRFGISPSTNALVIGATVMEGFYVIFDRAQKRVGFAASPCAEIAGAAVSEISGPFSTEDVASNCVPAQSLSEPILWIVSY
pKi: −log10 of the molar value.
endpoint: pKi

Example compounds with recorded pKi:
{"columns": ["compound", "targetDesc", "pKi"],
 "data": [
  ["COC[C@H]1C[C@H]2C(=O)N(C)C(=N)N[C@@]2(c2cc(Oc3cc(F)cnc3F)c(F)cc2F)CO1", "purified human autoBACE-2 (Homo sapiens (Human))", 7.70],
  ["COC[C@H]1C[C@H]2C(=O)N(C)C(=N)N[C@@]2(c2cc(Br)ccc2F)CO1", "purified human autoBACE-2 (Homo sapiens (Human))", 6.52],
  ["CN1C(=N)N[C@@]2(c3cc(Oc4cncc(C#N)c4)ccc3F)CO[C@@H](C3CC3)C[C@H]2C1=O", "purified human autoBACE-2 (Homo sapiens (Human))", 7.29],
  ["C[C@H]1C[C@H]2C(=O)N(C)C(=N)N[C@@]2(c2cc(O)ccc2F)CO1", "purified human autoBACE-2 (Homo sapiens (Human))", 7.08],
  ["Cc1cncc(Oc2ccc(F)c([C@]34CO[C@@H](C5CC5)C[C@H]3C(=O)N(C)C(=N)N4)c2)n1", "purified human autoBACE-2 (Homo sapiens (Human))", 6.99],
  ["CN1C(=N)N[C@@]2(c3cc(OCC45CC(C#N)(C4)C5)ccc3F)CO[C@@H](C3CC3)C[C@H]2C1=O", "purified human autoBACE-2 (Homo sapiens (Human))", 6.90]
]}

1 = C[C@H]1C[C@H]2C(=O)N(C)C(=N)N[C@@]2(c2cc(Oc3cccnc3)ccc2F)CO1
2 = C[C@H]1C[C@H]2C(=O)N(C)C(=N)N[C@@]2(c2cc(OCC3CC3)ccc2F)CO1
3 = COC[C@H]1C[C@H]2C(=O)N(C)C(=N)N[C@@]2(c2cc(Oc3ncccc3F)c(F)cc2F)CO1
query: Task for the reader: rank each entry by its pKi, from the minimum upward. Rank them, then answer with their labels in that order.
result: 1, 2, 3

----------
# targetDesc: Recombinant human soluble BACE1 catalytic domain (Homo sapiens (Human), UniProt P56817)
# Sequence (P56817 75-416): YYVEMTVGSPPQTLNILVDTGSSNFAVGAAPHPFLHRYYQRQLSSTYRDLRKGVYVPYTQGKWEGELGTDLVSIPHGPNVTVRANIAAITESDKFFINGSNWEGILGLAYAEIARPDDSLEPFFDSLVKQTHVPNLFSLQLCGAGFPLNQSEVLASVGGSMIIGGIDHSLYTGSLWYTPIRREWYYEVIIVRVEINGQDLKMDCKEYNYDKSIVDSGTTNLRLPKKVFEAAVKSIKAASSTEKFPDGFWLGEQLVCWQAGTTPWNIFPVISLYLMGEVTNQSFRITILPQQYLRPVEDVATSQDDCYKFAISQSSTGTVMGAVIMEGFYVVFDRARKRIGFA
# measurementNotes: BACE1 HTRF FRET Assay
# conditionLabel: Ki calculated from IC50 using the Cheng-Prusoff equation; QSY7-APPswe-Eu substrate, pH 5.0; read-out: BACE-1 Ki
pKi: −log10 of the molar value.
endpoint: pKi

Answered examples (3):
{"columns": ["recordSmiles", "pKi"],
 "data": [
  ["C[C@H]1C[C@H]2C(=O)N(C)C(=N)N[C@@]2(c2cc(Oc3cc(F)ccc3F)ccc2F)CO1", 7.34],
  ["COC[C@H]1C[C@H]2C(=O)N(C)C(=N)N[C@@]2(c2cc(OCC3CC3)c(F)cc2F)CO1", 7.17],
  ["C[C@H]1C[C@H]2C(=O)N(C)C(=N)N[C@@]2(c2cc(Oc3ccncc3F)ccc2F)CO1", 7.35]
]}

1 = COC[C@H]1C[C@H]2C(=O)N(C)C(=N)N[C@@]2(c2cc(Oc3cc(C#N)ccn3)ccc2F)CO1
2 = CN1C(=N)N[C@@]2(c3cc(O)ccc3F)CO[C@@H](c3ccc(F)cc3)C[C@H]2C1=O
3 = Cc1cncc(Oc2ccc(F)c([C@]34CO[C@@H](C5CC5)C[C@H]3C(=O)N(C)C(=N)N4)c2)n1
4 = COc1cncc(Oc2ccc(F)c([C@]34CO[C@@H](C5CC5)C[C@H]3C(=O)N(C)C(=N)N4)c2)n1
5 = CN1C(=N)N[C@@]2(c3cc(Oc4cccc(C#N)c4)ccc3F)CO[C@@H](C3CC3)C[C@H]2C1=O
query: Would you mind ranking these compounds by ascending pKi? Provide the labels, sequenced as the question asks.
result: 2, 5, 3, 4, 1
(2: 7.15, 5: 7.57, 3: 7.92, 4: 8.15, 1: 8.52)

----------
# targetDesc: purified human autoBACE-2 (Homo sapiens (Human))
pKi: −log10 of the molar value.
endpoint: pKi

{"columns": ["molecule", "pKi"],
 "data": [
  ["CN1C(=N)N[C@@]2(c3cc(OCC4CC4)ccc3F)CO[C@@H](c3ccc(F)cc3)C[C@H]2C1=O", 9.12]
]}

A = C[C@H]1C[C@H]2C(=O)N(C)C(=N)N[C@@]2(c2cc(Oc3ncc(F)cc3F)ccc2F)CO1 [Example 36]
B = CN1C(=N)N[C@@]2(c3cc(Oc4cc(-n5cccn5)ccn4)ccc3F)CO[C@@H](C3CC3)C[C@H]2C1=O
C = CN1C(=N)N[C@@]2(c3cc(Oc4ncc(F)cc4F)ccc3F)CO[C@@H](C3CC3)C[C@H]2C1=O
query: Could you please sort these 3 entries by pKi from high to low? Respond with the label ranking, as requested.
result: A, B, C
(A: 7.62, B: 7.29, C: 6.96)

I = COC(=O)[C@@H]1C[C@H]2C(=O)N(C)C(=N)N[C@@]2(c2ccc(F)cc2F)CO1
II = CN1C(=N)N[C@@]2(c3cc(Oc4cc(-n5cccn5)ncn4)ccc3F)CO[C@@H](C3CC3)C[C@H]2C1=O
III = CN1C(=N)N[C@@]2(c3cc(OC4CC(F)(F)C4)ccc3F)CO[C@@H](C3CC3)C[C@H]2C1=O
query: Thanks in advance: please rank these 3 entries by pKi, highest to lowest. Output spec: a listing of the labels in the requested order.
result: II, III, I
(II: 7.64, III: 7.39, I: 5.86)

I = CCCOc1ccc(F)c([C@]23CO[C@@H](C4CC4)C[C@H]2C(=O)N(C)C(=N)N3)c1
II = Cc1nccnc1Oc1ccc(F)c([C@]23CO[C@@H](C)C[C@H]2C(=O)N(C)C(=N)N3)c1
query: I would appreciate it if you could say which entry, I or II , has the lower pKi value. Write the label of whichever entry you select.
result: II
(II: 6.63, I: 7.19)

I = CN1C(=N)N[C@@]2(c3cc(Oc4ncccc4F)ccc3F)COCC[C@H]2C1=O
II = CN1C(=N)N[C@@]2(c3cc(Br)ccc3F)CO[C@@H](c3ccc(F)cc3)C[C@H]2C1=O
query: Hi, I'm comparing two records. Which one has the lower pKi, I or II ? Could you answer with the label of the item you picked?
result: II
(II: 7.62, I: 7.87)

P = CN1C(=N)N[C@@]2(c3cc(OCC4CC4)ccc3F)CO[C@@H](C3CC3)C[C@H]2C1=O
Q = C[C@H]1C[C@H]2C(=O)N(C)C(=N)N[C@@]2(c2cc(Oc3ncccc3F)ccc2F)CO1
R = COC[C@H]1C[C@H]2C(=O)N(C)C(=N)N[C@@]2(c2cc(Oc3cc(C#N)ccn3)ccc2F)CO1
S = C[C@H]1C[C@H]2C(=O)N(C)C(=N)N[C@@]2(c2cc(Oc3ncc(F)cc3F)ccc2F)CO1 [Example 79]
query: Order field: pKi | Direction: descending (largest first) Give the order by naming the labels one after another as requested.
result: Q, P, R, S
